Reference source: patent US11873287B2

Test system: ICR mice
Experiment: Acute toxicity experiment of single oral administration in mice
Format: in vivo
Details: Day 7; female; 1000 mg/Kg single oral dose
measured-attribute: Daily Body Weight of Tested Female Mice (Mean ± SD) (g)
Give the value, in units of g, as a plain number.

1. COCCN1C(=O)CCC(N2C(=O)c3cccc(O)c3C2=O)C1=O (centres unmarked)
24.6
2. CSCCN1C(=O)CCC(N2C(=O)c3cccc(N)c3C2=O)C1=O (centres unmarked)
23.2
3. COCCCCN1C(=O)CCC(N2C(=O)c3cccc(N)c3C2=O)C1=O (centres unmarked)
25.6
4. Nc1cccc2c1C(=O)N(C1CCC(=O)N(CCO)C1=O)C2=O (centres unmarked)
22.9
5. COCCCN1C(=O)CCC(N2C(=O)c3cccc(F)c3C2=O)C1=O (centres unmarked)
22.7
6. COCCCN1C(=O)CCC(N2C(=O)c3cccc(N)c3C2=O)C1=O (centres unmarked)
22.4

## Task Check ICR mice data and give Daily Body Weight of Tested Female Mice (Mean ± SD) for COCCN1C(=O)CCC(N2C(=O)c3cccc(NC(C)=O)c3C2=O)C1=O (centres unmarked) .
## Result 27.1
